// provenance: patent US20250361322A1

Target: T1, pig TF ECD-His (TF-His) protein (pig (Sus scrofa))
T1 construct: also called pig TF-His; pTF
T1 chain: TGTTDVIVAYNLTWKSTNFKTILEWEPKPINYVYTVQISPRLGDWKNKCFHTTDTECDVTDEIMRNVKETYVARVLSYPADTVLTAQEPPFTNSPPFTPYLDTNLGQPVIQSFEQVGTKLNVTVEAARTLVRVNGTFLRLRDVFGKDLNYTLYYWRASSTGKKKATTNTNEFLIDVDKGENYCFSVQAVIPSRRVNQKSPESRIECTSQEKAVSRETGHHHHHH
Assay: Biacore; antibody captured by anti-human IgG on CM5 chip, titration of pig TF-His, 1:1 model
RESULT_TYPE: Kd (nM)

>  <BINDER>
anti-TF antibody 25A5 (antibody, human IgG1, V domains shown, Human IgG1) VH: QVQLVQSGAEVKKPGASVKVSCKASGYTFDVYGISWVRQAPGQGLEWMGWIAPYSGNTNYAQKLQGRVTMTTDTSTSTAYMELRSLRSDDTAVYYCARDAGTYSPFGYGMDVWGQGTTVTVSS VL: DIQMTQSPSTLSASVGDRVTITCRASESISNWLAWYQQKPGKAPKLLIYKAYSLEYGVPSRFSGSGSGTEFTLTISSLQPDDFATYYCQQFQKLPPFTFGGGTKVEIK

>  <ASSAY_VALUE>
5.2

$$$$
>  <BINDER>
anti-TF antibody 25G (antibody, human IgG1, V domains shown, Human IgG1) VH: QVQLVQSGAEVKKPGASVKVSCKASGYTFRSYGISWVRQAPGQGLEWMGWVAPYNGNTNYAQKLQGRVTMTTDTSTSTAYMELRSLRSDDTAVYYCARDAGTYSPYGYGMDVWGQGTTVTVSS VL: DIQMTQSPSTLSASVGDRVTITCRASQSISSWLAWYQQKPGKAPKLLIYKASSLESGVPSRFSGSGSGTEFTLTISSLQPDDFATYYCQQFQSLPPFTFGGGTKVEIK

>  <ASSAY_VALUE>
26

$$$$
>  <BINDER>
anti-TF antibody 25A (antibody, human IgG1, V domains shown, Human IgG1) VH: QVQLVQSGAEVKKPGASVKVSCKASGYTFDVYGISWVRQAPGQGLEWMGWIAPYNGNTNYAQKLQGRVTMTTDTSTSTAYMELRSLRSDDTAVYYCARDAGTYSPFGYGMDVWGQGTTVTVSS VL: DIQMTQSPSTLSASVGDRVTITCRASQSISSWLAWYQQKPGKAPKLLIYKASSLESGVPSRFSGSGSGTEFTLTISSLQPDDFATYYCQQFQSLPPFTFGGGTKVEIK

>  <ASSAY_VALUE>
18.7

$$$$
>  <BINDER>
anti-TF antibody 43D7 (antibody, human IgG1, V domains shown, Human IgG1) VH: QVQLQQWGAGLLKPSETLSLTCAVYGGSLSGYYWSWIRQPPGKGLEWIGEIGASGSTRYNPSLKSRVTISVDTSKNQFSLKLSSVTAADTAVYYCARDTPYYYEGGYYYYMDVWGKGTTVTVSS VL: EIVLTQSPGTLSLSPGERATLSCRASDSVDSSYLAWYQQKPGQAPRLLIYGAFSRANGIPDRFSGSGSGTDFTLTISRLEPEDFAVYYCQQAGVVPYTFGGGTKVEIK

>  <ASSAY_VALUE>
8.8

$$$$
